Reported EC50 values for a set of compounds
system_tested: Ras-related C3 botulinum toxin substrate 1 (Mus musculus)
test_description: blockers of fluorescent GTP loading onto wildtype Rac1 – biochemical, pyrazoline analogs, multiplex, flow cytometry, Ki, SAR follow-up (AID 2055)
conditions: inactive by the depositor's call
Could you give the number and then its unit, please?

Example entries begin here.
COc1ccc(C2=NN(c3ccc(Cl)c(Cl)c3)C(c3ccc(OC)cc3)C2)cc1 (stereo not given): 30 µM
CN(C)c1ccc(C2CC(c3ccc(Br)cc3)=NN2c2ccccc2)cc1 (stereo not given): 30 µM
COc1ccc(C2=NN(c3cccc(F)c3)C(c3ccc(OC)cc3)C2)cc1 (stereo not given): 30 µM
CN(C)c1ccc(C2CC(c3ccc(F)cc3)=NN2c2ccccc2)cc1 (stereo not given): 30 µM

Lab note: CC(=O)Oc1ccc(C2=NN(c3ccccc3)C(c3ccccc3)C2)cc1 (stereo not given) gave EC50 of 5.65 µM
